The measured values listed here are drawn from patent US20250129012A1.

Assay: In vivo pharmacokinetics in SD rats
Conditions: Sprague-Dawley, rat, in vivo, 10 mg/kg
Procedure: Compound stock solution preparation: an appropriate amount of solid powder of the compounds were weighed separately, a certain amount of DMSO was added and 20 mg/mL of stock solution was obtained under vortex ultrasound. […] The blood samples were centrifuged at 4° C. for 5 min at 2,000 g to separate the plasma. The plasma samples were analyzed by LC/MS/MS to detect the concentration of each test compound in the plasma samples. […]
Threshold 60%: F strictly smaller gives Criterion met, otherwise Criterion not met.

{"CHEMICAL SMILES": "[2H]C([2H])([2H])Oc1c(OC)c(OC)cc2c1-c1ccc(C(=O)NC)c(=O)cc1[C@@H](NC(C)=O)CC2", "LABEL VALUE": "Criterion met"}
{"CHEMICAL SMILES": "[2H]C([2H])([2H])NC(=O)c1ccc2c(cc1=O)[C@@H](NC(C)=O)CCc1cc(OC)c(OC)c(OC)c1-2", "LABEL VALUE": "Criterion not met"}
{"CHEMICAL SMILES": "[2H]C([2H])([2H])Oc1cc2c(c(OC)c1OC([2H])([2H])[2H])-c1ccc(C(=O)NC)c(=O)cc1[C@@H](NC(C)=O)CC2", "LABEL VALUE": "Criterion met"}

Lab note: confirm whether the reported F for this molecule is below 60%, equality not counting. molecule: CCNC(=O)c1ccc2c(cc1=O)[C@@H](NC(C)=O)CCc1cc(OC)c(OC)c(OC)c1-2
Criterion not met

Lab note: confirm whether the reported F for this molecule is below 60%, equality not counting. molecule: CNC(=O)c1ccc2c(cc1=O)[C@@H](NC(C)=O)CCc1cc(OC)c(OC)c(OC)c1-2
Criterion met

Lab note: confirm whether the reported F for this molecule is below 60%, equality not counting. molecule: COc1cc2c(c(OC)c1OC)-c1ccc(C(=O)Nc3ccccc3)c(=O)cc1[C@@H](NC(C)=O)CC2
Criterion not met
